The following binders are listed with their measured Binding Signal (fold over 6E7 parental antibody) values.
- assayedSystem: T1, human TREM2 (human) (UniProt Q9NZC2)
- T1 sequence (looked up): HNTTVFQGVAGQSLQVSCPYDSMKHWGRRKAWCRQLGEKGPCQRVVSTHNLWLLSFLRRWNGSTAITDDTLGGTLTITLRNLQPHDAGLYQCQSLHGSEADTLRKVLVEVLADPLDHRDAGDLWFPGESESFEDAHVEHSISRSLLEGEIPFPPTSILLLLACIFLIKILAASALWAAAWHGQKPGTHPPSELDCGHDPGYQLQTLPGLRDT
- protocolSummary: 1st screen, 10 nM Ab
// return numeric value only (unit: fold, not printed)

Some solved entries appear below for comparison.
Tell me its Binding Signal (fold over 6E7 parental antibody) given 6E7 variant V51 (antibody, V domains shown) VH: EVQLVQSGAEVKKPGESLKISCKGSGYSFTSYWIAWVRQMPGKGLEWMGIIYPGDSDVRYSPSFQGQVTISADKSISTAYLQWSSLKASDTAMYFCARGRTFYYDSSDYFDNWGQGTLVTVSS VL: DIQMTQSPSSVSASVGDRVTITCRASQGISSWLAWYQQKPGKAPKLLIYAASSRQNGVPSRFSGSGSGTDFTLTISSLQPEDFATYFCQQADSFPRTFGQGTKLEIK as the entry.
2.81

Tell me its Binding Signal (fold over 6E7 parental antibody) given 6E7 variant V89 (antibody, V domains shown) VH: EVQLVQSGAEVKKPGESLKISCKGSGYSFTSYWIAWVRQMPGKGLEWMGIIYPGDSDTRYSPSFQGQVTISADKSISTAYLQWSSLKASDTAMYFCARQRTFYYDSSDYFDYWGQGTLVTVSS VL: DIQMTQSPSSVSASVGDRVTITCRASQGISSWLAWYQQKPGKAPKLLIYAASSLQNGVPSRFSGSGSGTDFTLTISSLQPEDFATYFCQQADSHPRTFGQGTKLEIK as the entry.
1.33

Tell me its Binding Signal (fold over 6E7 parental antibody) given 6E7 variant V13 (antibody, V domains shown) VH: EVQLVQSGAEVKKPGESLKISCKGSGYSFGSYWIAWVRQMPGKGLEWMGIIYPGDSDTRYSASFQGQVTISADKSISTAYLQWSSLKASDTAMYFCARGRTFYYDSSDYFDYWGQGTLVTVSS VL: DIQMTQSPSSVSASVGDRVTITCRASQGISSWLAWYQQKPGKAPKLLIYAASSLQGGVPSRFSGSGSGTDFTLTISSLQPEDFATYFCQQADSMPRTFGQGTKLEIK as the entry.
1.31

Tell me its Binding Signal (fold over 6E7 parental antibody) given 6E7 variant V50 (antibody, V domains shown) VH: EVQLVQSGAEVKKPGESLKISCKGSGYSFGSYWIAWVRQMPGKGLEWMGVIYPGDSDTRYSPSFQGQVTISADKSISTAYLQWSSLKASDTAMYFCARQRTFYYDSSDYLDYWGQGTLVTVSS VL: DIQMTQSPSSVSASVGDRVTITCRASQGISSWLAWYQQKPGKAPKLLIYAASSRQNGVPSRFSGSGSGTDFTLTISSLQPEDFATYFCQQADSLPRTFGQGTKLEIK as the entry.
4.1

Then there is this binder:
Tell me its Binding Signal (fold over 6E7 parental antibody) given 6E7 variant V40 (antibody, V domains shown) VH: EVQLVQSGAEVKKPGESLKISCKGSGYSFGSYWIAWVRQMPGKGLEWMGIIYPGDSDVRYSPSFQGQVTISADKSISTAYLQWSSLKASDTAMYFCARQRTFYYDSSDYSDYWGQGTLVTVSS VL: DIQMTQSPSSVSASVGDRVTITCRASQGISSWLAWYQQKPGKAPKLLIYAASSLQLGVPSRFSGSGSGTDFTLTISSLQPEDFATYFCQQADRFPRTFGQGTKLEIK as the entry.
4.48

FYI, the data here is from patent US20260250381A1.
